- tgt: human CD33 N20Q (human, UniProt P20138 18-364)
- Sequence (P20138 18-364 N20Q limits assumed): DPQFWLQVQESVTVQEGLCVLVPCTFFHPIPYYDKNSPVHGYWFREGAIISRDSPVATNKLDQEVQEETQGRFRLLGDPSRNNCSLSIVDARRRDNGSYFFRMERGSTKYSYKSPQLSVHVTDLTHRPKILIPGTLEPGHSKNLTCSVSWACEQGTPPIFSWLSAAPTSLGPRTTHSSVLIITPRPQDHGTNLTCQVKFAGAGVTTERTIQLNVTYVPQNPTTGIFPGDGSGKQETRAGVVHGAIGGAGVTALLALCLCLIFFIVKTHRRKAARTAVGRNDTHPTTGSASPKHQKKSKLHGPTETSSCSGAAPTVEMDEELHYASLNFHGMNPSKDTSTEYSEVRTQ
- assay.explanation: flow cytometry, mutant on cells, IgG
measured.attribute: Mean % WT Binding (% WT binding)
Answers are plain numbers, in % WT binding.

Refmab #2 (antibody, human IgG1, V domains shown, Tested in IgG format; human IgG1 Fc silent (PG-LALA)) VH: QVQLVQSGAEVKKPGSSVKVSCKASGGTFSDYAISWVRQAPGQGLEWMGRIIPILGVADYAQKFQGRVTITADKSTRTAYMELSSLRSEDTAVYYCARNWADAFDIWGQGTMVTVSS VL: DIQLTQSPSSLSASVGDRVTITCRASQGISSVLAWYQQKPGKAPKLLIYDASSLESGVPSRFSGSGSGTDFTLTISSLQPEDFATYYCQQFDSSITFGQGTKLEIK :: 125
Refmab #4 (antibody, human IgG1, V domains shown, Tested in IgG format; human IgG1 Fc silent (PG-LALA)) VH: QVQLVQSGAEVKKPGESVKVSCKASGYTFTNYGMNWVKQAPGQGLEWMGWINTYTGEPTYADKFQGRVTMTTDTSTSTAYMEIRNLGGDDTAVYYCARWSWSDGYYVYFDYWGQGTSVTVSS VL: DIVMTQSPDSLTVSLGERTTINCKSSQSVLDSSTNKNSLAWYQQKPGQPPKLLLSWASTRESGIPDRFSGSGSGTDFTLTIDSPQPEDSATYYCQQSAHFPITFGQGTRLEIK :: 99.4
Refmab #1 (antibody, human IgG1, V domains shown, Tested in IgG format; human IgG1 (Absolute Antibody hP67.6, Cat. No. Ab00283-10.0); also called hP67.6) VH: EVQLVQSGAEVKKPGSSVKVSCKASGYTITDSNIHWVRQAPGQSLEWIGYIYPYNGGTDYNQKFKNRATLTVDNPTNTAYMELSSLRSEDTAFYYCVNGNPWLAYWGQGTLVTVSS VL: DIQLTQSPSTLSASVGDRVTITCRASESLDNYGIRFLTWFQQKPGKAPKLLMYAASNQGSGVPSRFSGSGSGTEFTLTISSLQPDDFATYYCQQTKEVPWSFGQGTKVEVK :: 2.8

Query block: Sample Refmab #3 (antibody, human IgG1, V domains shown, Tested in IgG format; human IgG1 Fc silent (PG-LALA)) VH: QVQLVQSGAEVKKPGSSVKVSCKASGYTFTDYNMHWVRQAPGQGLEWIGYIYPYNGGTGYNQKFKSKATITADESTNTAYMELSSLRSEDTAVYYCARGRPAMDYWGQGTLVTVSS VL: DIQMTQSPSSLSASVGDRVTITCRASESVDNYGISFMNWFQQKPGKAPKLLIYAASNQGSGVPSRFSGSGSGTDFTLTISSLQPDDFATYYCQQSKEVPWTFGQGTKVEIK — what was its Mean % WT Binding?
Result block: 3.4
